List of viability increase values.
test-method-notes: viability gain of MRP-1-high H69AR cells under doxorubicin, pilot screen, MRP-1 activator project, CellTiter-Glo, duplicate (AID 807);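 also: compound pretreatment 18-22 h then 72 h combined with doxorubicin; 0% = doxorubicin alone and 100% = vehicle without doxorubicin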
condition-parameters: H69AR viability with doxorubicin, CellTiter-Glo luminescence; at 10 µM; active compounds read high
Write the number in % without appending the unit.

Recorded results for 5 molecules are shown here.
molecule	quantity-unit	viability increase
CCn1c2ccccc2c2cc(NC(=O)C3CCN(S(=O)(=O)c4cccs4)CC3)ccc21	%	-5.99
COc1ccc(C2CC(=O)N3CN(c4ccc(C)c(Cl)c4)CSC3=C2C#N)cc1OC (stereo unspecified)	%	-4.27
Cc1ccc2cc(-c3noc(C4CCCCC4)n3)c(=O)[nH]c2c1	%	-2.36
O=C(c1ccccc1NS(=O)(=O)c1cccs1)N1CCCC1	%	-0.63
Cc1nc2ccccc2c2oc(C(=O)NCc3ccc4c(c3)OCO4)cc12	%	-0.55

# input GET /values?readout=viability increase&item= Cc1ccc(N2CC(c3nc4ccccc4n3C)CC2=O)cc1C (stereo unspecified)
# output -1.22

# input GET /values?readout=viability increase&item= "CC(=O)N1CCc2c(sc(NC(=O)c3ccc4c(c3)OCCO4)c2C#N)C1"
# output -6.36

# input GET /values?readout=viability increase&item= "O=C(O)c1c2c(nc3ccc(S(=O)(=O)N4CCC(C(=O)N5CCCCC5)CC4)cc13)CCCC2"
# output 0.51

# input GET /values?readout=viability increase&item= "Cc1c(C(=O)NCc2ccc3c(c2)OCO3)oc2ccccc12"
# output -0.04

# input GET /values?readout=viability increase&item= "Cc1cccc(OCCSc2cc(C)nc(N)n2)c1"
# output -1.44

# input GET /values?readout=viability increase&item= "Nc1nc(SCC(=O)NCCCO)nc2sc3c(c12)CCC3"
# output -1.44
